Biological target: T1, human TF ECD-His6 (human, UniProt P13726 33-251)
T1 construct: made in Expi293 cells; the entry holds the ECD with the C-terminal TG-His6; also called TF-His; hTF
Experiment: BLI (ForteBio Octet)
pKd: −log10 of the molar value.

BINDER: 43B7 (antibody, human IgG1, V domains shown, human IgG1) VH: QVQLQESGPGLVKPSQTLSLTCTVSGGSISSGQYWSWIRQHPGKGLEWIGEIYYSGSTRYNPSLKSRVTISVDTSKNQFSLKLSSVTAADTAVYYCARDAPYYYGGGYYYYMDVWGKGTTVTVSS VL: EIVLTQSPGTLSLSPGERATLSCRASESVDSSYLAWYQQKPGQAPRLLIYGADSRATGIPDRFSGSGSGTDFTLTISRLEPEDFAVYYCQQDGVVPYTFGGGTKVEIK
pKd: 9.07
//
BINDER: 25A (antibody, human IgG1, V domains shown, human IgG1) VH: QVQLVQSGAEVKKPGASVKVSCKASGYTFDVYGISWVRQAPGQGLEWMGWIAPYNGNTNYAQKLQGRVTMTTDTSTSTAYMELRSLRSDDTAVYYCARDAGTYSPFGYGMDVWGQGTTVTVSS VL: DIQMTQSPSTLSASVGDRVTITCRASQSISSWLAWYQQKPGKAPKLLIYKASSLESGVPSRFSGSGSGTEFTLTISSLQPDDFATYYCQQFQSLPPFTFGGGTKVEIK
pKd: 8.07
//
BINDER: 43D (antibody, human IgG1, V domains shown, human IgG1) VH: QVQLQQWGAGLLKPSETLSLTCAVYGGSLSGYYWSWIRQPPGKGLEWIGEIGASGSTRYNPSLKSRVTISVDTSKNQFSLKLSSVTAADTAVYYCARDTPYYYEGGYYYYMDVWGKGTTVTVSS VL: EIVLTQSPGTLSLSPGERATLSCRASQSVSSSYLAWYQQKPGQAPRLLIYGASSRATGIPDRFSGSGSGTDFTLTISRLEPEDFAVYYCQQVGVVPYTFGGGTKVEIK
pKd: 8.42
